Target: HLA-B*14:02
Experiment: IEDB peptide-MHC binding, purified MHC/competitive/fluorescence; filed as Kd, often an IC50 or EC50 that approximates it; bounds were set here for any values at or beyond the usual limits of such assays
Conditions: source organism: Entamoeba dispar SAW760
pKd: −log10 of the molar value.
observable: pKd

sequence | endpoint.value
SQYDPKELL | ≤ 5.30

----------
Target: HLA-B*46:01
Assay: IEDB peptide-MHC binding, purified MHC/competitive/fluorescence; filed as Kd, often an IC50 or EC50 that approximates it; bounds were set here for any values at or beyond the usual limits of such assays
Details: source organism: Four Corners hantavirus
pKd: −log10 of the molar value.

sequence | pKd
KSAFYQSYL | ≤ 4.70

----------
Target: HLA-B*39:01
Assay: IEDB peptide-MHC binding, purified MHC/direct/fluorescence; filed as Kd, often an IC50 or EC50 that approximates it; bounds were set here for any values at or beyond the usual limits of such assays
Settings: source organism: Entamoeba histolytica HM-1:IMSS
pKd: −log10 of the molar value.
observable: pKd

sequence | observable | endpoint.value
DSFAKQPQW | pKd | ≤ 4.70

----------
Overview of reported Kd across a group of sequences:
Target: HLA-A*02:01
Assay: IEDB peptide-MHC binding, purified MHC/direct/fluorescence; filed as Kd, often an IC50 or EC50 that approximates it; bounds were set here for any values at or beyond the usual limits of such assays
Conditions: source organism: Giardia lamblia ATCC 50803
observable: Kd (nM)

sequence | inequality.sign | endpoint.value
CYPRLWGVR | ≥ | 20000
EFDNYRGTI | ≥ | 20000
HCIDKTPGL | = | 319
KLADMSIYC | = | 42.7
QPWTPVSSF | ≥ | 20000

----------
Biological target: HLA-A*69:01
Assay: IEDB peptide-MHC binding, purified MHC/direct/fluorescence; filed as Kd, often an IC50 or EC50 that approximates it; bounds were set here for any values at or beyond the usual limits of such assays
Conditions: source organism: Yellow fever virus
pKd: −log10 of the molar value.
Overview of reported pKd across a group of sequences:

sequence | pKd
GTGDSRLTY | ≤ 4.70
VNRWLFRHL | ≤ 4.70

----------
Target: HLA-B*07:02
Assay: IEDB peptide-MHC binding, purified MHC/direct/fluorescence; filed as Kd, often an IC50 or EC50 that approximates it; bounds were set here for any values at or beyond the usual limits of such assays
Settings: source organism: Giardia lamblia ATCC 50803
pKd: −log10 of the molar value.

sequence | target.under.test | inequality.sign | pKd
CYPRLWGVR | HLA-B*07:02 | = | 5.03
EFDNYRGTI | HLA-B*07:02 | ≤ | 4.70
QPWTPVSSF | HLA-B*07:02 | = | 6.87
KLADMSIYC | HLA-B*07:02 | ≤ | 4.70
HCIDKTPGL | HLA-B*07:02 | ≤ | 4.70

----------
Target: HLA-A*02:01
Test: IEDB peptide-MHC binding, purified MHC/competitive/radioactivity; filed as Kd, often an IC50 or EC50 that approximates it; bounds were set here for any values at or beyond the usual limits of such assays
Details: source organism: Dengue virus 4 Philippines/H241/1956

sequence | target.under.test | Kd
FSMGLLCLTL | HLA-A*02:01 | 8.99 µM
IILEFFLMVL | HLA-A*02:01 | 0.0955 µM
